# target-of-assay: recombinant PRL-3 (Homo sapiens)
# Construct: 6xHis (N, cleaved yes); made in house; host or cells: E. coli One Shot BL21 Star
# Sequence (O75365 whole entry): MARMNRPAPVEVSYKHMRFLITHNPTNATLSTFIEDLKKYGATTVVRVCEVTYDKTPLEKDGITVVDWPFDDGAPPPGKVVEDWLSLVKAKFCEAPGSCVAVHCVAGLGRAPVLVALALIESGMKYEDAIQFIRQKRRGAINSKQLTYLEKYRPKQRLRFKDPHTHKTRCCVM
# experiment-summary: In vitro phosphatase assay (DiFMUP hydrolysis), PRL-3; note: test concentration or dose not given here
# Type: biochemical
# test-context: FDA-approved drug screen; compared to DMSO
Where a name gives a salt, the structure may show the parent alone.
measured-property: % Phosphatase Activity (compared to DMSO) PRL-3 (%)

- compound: "CCc1ccc(CCOc2ccc(CC3SC(=O)NC3=O)cc2)nc1 (stereo not drawn) [Pioglitazone HCl]"
  value: 86
- compound: "CCOC(=O)[N-]c1cn(N2CCOCC2)n[o+]1"
  value: 79
- compound: "CC(C)CN(C[C@@H](O)[C@H](Cc1ccccc1)NC(=O)O[C@H]1CCOC1)S(=O)(=O)c1ccc(N)cc1"
  value: 77
- compound: "O=C(c1ccc(F)c(F)c1Nc1ccc(I)cc1F)N1CC(O)([C@@H]2CCCCN2)C1"
  value: 95
- compound: "CC(O)C(=O)O.CN1CCN(c2ccc3nc(-c4c(N)c5c(F)cccc5[nH]c4=O)[nH]c3c2)CC1 [Dovitinib (TKI258) Lactate]"
  value: 85
- compound: "C=CC(=O)Nc1cc(Nc2nccc(-c3cn(C)c4ccccc34)n2)c(OC)cc1N(C)CCN(C)C"
  value: 100
- compound: "c1cn2cc(-c3ccc4cn[nH]c4c3)nc(Nc3ccc(N4CCOCC4)cc3)c2n1"
  value: 104
- compound: "C[C@](N)(Cc1ccc(O)c(O)c1)C(=O)O"
  value: 70
- compound: "CO/N=C(/C(=O)N[C@@H]1C(=O)N2C(C(=O)[O-])=C(CSc3nc(=O)c([O-])nn3C)CS[C@H]12)c1csc(N)n1.O.O.O.[Na+].[Na+] [Ceftriaxone Sodium Trihydrate]"
  value: 108
- compound: "CC(C)[C@H]1CC[C@H](C(=O)N[C@H](Cc2ccccc2)C(=O)O)CC1 [Nateglinide]"
  value: 73
- compound: "C[C@H](O)C(=O)Nc1c(I)c(C(=O)NC(CO)CO)c(I)c(C(=O)NC(CO)CO)c1I"
  value: 90
- compound: "COc1cc(Nc2ncc(F)c(Nc3ccc4c(n3)N(COP(=O)([O-])[O-])C(=O)C(C)(C)O4)n2)cc(OC)c1OC.[Na+].[Na+] [R788 (Fostamatinib) Disodium]"
  value: 88
- compound: "COc1ccc(C[C@@H]2c3cc(OC)c(OC)cc3CC[N@+]2(C)CCC(=O)OCCCCCOC(=O)CC[N@@+]2(C)CCc3cc(OC)c(OC)cc3[C@H]2Cc2ccc(OC)c(OC)c2)cc1OC [Cisatracurium Besylate]"
  value: 79
- compound: "CCN(CC)CC#CCOC(=O)C(O)(c1ccccc1)C1CCCCC1 (stereo not drawn) [Oxybutynin]"
  value: 118
- compound: "CC(=O)O[C@@]12CO[C@@H]1C[C@H](O)[C@@]1(C)C(=O)[C@H](O)C3=C(C)[C@@H](OC(=O)[C@H](O)[C@@H](NC(=O)OC(C)(C)C)c4ccccc4)C[C@@](O)([C@@H](OC(=O)c4ccccc4)[C@H]21)C3(C)C [Docetaxel Trihydrate]"
  value: 90
- compound: "Cc1ccc(-c2cc(C(F)(F)F)nn2-c2ccc(S(N)(=O)=O)cc2)cc1"
  value: 71
- compound: "CCn1cc(C(=O)O)c(=O)c2ccc(C)nc21"
  value: 100
- compound: "CCCN1C[C@H](CSC)C[C@@H]2c3cccc4[nH]cc(c34)C[C@H]21 [Pergolide mesylate]"
  value: 90
- compound: "C[C@]12CC[C@@H]3c4ccc(OC(=O)c5ccccc5)cc4CC[C@H]3[C@@H]1CC[C@@H]2O [Estradiol Benzoate]"
  value: 91
- compound: "CCC[C@@H]1C[C@@H](C(=O)N[C@@H]([C@H]2O[C@H](SC)[C@H](O)[C@@H](O)[C@H]2O)[C@@H](C)O)N(C)C1 [Lincomycin HCl]"
  value: 76
- compound: "C[C@]12C=CC(=O)C=C1CC[C@@H]1[C@@H]2[C@@H](O)C[C@@]2(C)[C@H]1CC[C@]2(O)C(=O)CO"
  value: 103
- compound: "COc1cc2nc(N(C)CCCNC(=O)C3CCCO3)nc(N)c2cc1OC (stereo not drawn) [Alfuzosin HCl]"
  value: 290
- compound: "NC(=O)c1cc(N2CC2)c([N+](=O)[O-])cc1[N+](=O)[O-]"
  value: 105
- compound: "CC(C)C(=O)Oc1ccc(CO)cc1[C@H](CCN(C(C)C)C(C)C)c1ccccc1 [Fesoterodine Fumarate]"
  value: 95
- compound: "O=C(O)c1cn(-c2ccc(F)cc2)c2cc(N3CCNCC3)c(F)cc2c1=O [Sarafloxacin HCl]"
  value: 116
- compound: "O=C(O)C(=O)O.[NH-][C@@H]1CCCC[C@H]1[NH-].[Pt+2]"
  value: 76
- compound: "CCOC(=O)CCC(=O)O[C@H]1[C@H](O[C@@H]2[C@@H](C)[C@H](O[C@H]3C[C@@](C)(OC)[C@@H](O)[C@H](C)O3)[C@@H](C)C(=O)O[C@H](CC)[C@@](C)(O)[C@H](O)[C@@H](C)C(=O)[C@H](C)C[C@@]2(C)O)O[C@H](C)C[C@@H]1N(C)C [Erythromycin Ethylsuccinate]"
  value: 71
